target: C5aR+Gα15/CHO; assay: binding; two sites, site 1
recorded metric: pKi
Answers are plain numbers, as −log10 of the molar value.

Ask | pKi for C5a (ligand) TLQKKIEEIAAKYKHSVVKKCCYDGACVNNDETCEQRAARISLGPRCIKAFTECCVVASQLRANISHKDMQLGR ?
Reply | 9.22

Cited source: patent US20060141569A1
